Cited source for all entries: patent US8431611B2

- Test system: T. gondii tachyzoites
- Assay name: Replication inhibition assay
- Format: cell-based, Toxoplasma gondii
- Recorded conditions: 10 μg/ml added 2 hours after infection of HFF cells, 26 hours; FIG. 2
Attribute measured: inhibition of T. gondii replication

Compound | Attribute measured | Assay result
CCNC(=O)C1=C(C)C(C)C(C)O1 (centres unmarked) | inhibition of T. gondii replication | moderate inhibition
CC1=C(C=O)OC(C)C1C (centres unmarked) | inhibition of T. gondii replication | quite effective
CC1=C(c2nc3ccccc3s2)OC2OC3(C)CCC4C(C)CCC1C24OO3 (centres unmarked) | inhibition of T. gondii replication | quite effective
COC(=O)C1=C(C)C(C)C(C)O1 (centres unmarked) | inhibition of T. gondii replication | moderate inhibition
